Cited source: a melting point compilation (Tetko et al.; mined from patent text by program, amines drawn as free bases though some values may be those of a salt)

Below is a list of entries, each paired with its recorded melting point value.

Example molecules with recorded melting point:
INSERT INTO results (molecule, result_type, reported) VALUES
  ('CCCCN(CCCC)c1nc(-c2ccc(OC)cc2)nc2sc(C#N)c(C)c12', 'melting point', '96 to 98 °C'),
  ('CS(=O)(=O)N(c1ccc([N+](=O)[O-])cn1)S(C)(=O)=O', 'melting point', '175 to 177 °C'),
  ('CCOC(=O)CC(=O)c1cc(F)c(OC)nc1Nc1ccc(F)cc1F', 'melting point', '148 to 149 °C'),
  ('O=c1cc(-c2ccc(O)cc2)oc2ccncc12', 'melting point', '306 to 308 °C');

Next up:
# get_value(readout='melting point', item= CN(C)c1ccccc1CSC1=NC(=O)NC1(C)C )
160 to 162 °C

###

Below is a list of entries, each paired with its recorded melting point value.

Example molecules with recorded melting point:
INSERT INTO assay_data (molecule, result_type, reported) VALUES
  ('OC1CCCc2nc3ccccc3c(NCc3ccc(F)cc3)c21 (stereo not given)', 'melting point', '170 °C'),
  ('CC(C)(C)C(O)C1C(C(=O)O)C1(C)C (stereo not given)', 'melting point', '129 °C'),
  ('C=CCN(CC=C)C(=O)C(C#N)(CC)c1ccccc1 (stereo not given)', 'melting point', '33 to 35 °C');

# get_value(readout='melting point', item= CCOC(=N)N1Cc2ccccc2-c2ccccc2C1 )
68 to 71 °C

# get_value(readout='melting point', item= CCSc1nc(-c2ccc(OC)cc2)c(-c2ccc(OC)cc2)[nH]1 )
108 to 109 °C

# get_value(readout='melting point', item= COc1cc(OC)nc(NC(=O)NS(=O)(=O)N=CN(CSC)OC)n1 )
165 to 167 °C

###

Below is a list of entries, each paired with its recorded melting point value.

Example molecules with recorded melting point:
INSERT INTO measurements (molecule, result_type, reported) VALUES
  ('COc1ccc(O)c(C2(CO)C(=O)N(CO)c3cccc(Br)c32)n1 (centres undefined)', 'melting point', '142 to 145 °C'),
  ('CCc1cnc(OCCOc2ncnc(NS(=O)(=O)c3ccc(C(C)(C)C)cc3)c2Oc2cccc(OC)c2)nc1', 'melting point', '158 to 160 °C'),
  ('CN1Cc2c(c3cc(CCCN4CCN(c5nsc6ccccc56)CC4)ccc3[nH]c2=O)C1', 'melting point', '206 to 208 °C'),
  ('CCCn1ncc2c(=O)[nH]c(-c3ccccc3OCC)nc21', 'melting point', '154 to 155 °C'),
  ('O=C(O)c1ccc2c(c1)COC2c1ccc(F)cc1 (centres undefined)', 'melting point', '187 to 190 °C'),
  ('O=S(=O)(Cc1ccccc1)On1nnc2ccccc21', 'melting point', '65 to 67 °C'),
  ('Cc1c(CCN(C(=O)C(F)(F)F)c2cc3ccccc3n2C)ncn1S(=O)(=O)N(C)C', 'melting point', '156 to 158 °C'),
  ('CN(C)CCNC(=O)c1cccc(-c2ccnc(C(=O)N(O)Cc3ccccc3)c2)c1', 'melting point', '65 to 70 °C');

# get_value(readout='melting point', item= COc1cccc(NC(NC(C)C(C)(C)C)=C(C#N)S(=O)(=O)C(C)C)c1 (centres undefined) )
59 to 62 °C
